// provenance: paper PMC4608832

tested on: P. falciparum 3D7 (CQ-sensitive); experiment: In vitro antiplasmodial activity, 3H-hypoxanthine incorporation, strain 3D7; format: cell-based; conditions: Plasmodium falciparum, 3D7, laboratory B (Paris), candle jar ~17% O2, 3% CO2, 80% N2; IC50 ± SD; read-out: Antiplasmodial activity, IC50, 3D7
assay_metric: pIC50
Entry type: numeric. Quantity: pIC50, the -log10 of concentration in molar units.

CCN(CC)Cc1cccc(CNc2ccnc3cc(Cl)ccc23)c1
7.77
CCN(CC)Cc1ccc(CNc2ccnc3cc(Cl)ccc23)cc1
7.79
CCN(CC)Cc1cc(Nc2ccnc3cc(Cl)ccc23)ccc1O [AQ, amodiaquine, reference compound]
7.92
CCN(CC)Cc1ccccc1CNc1ccnc2cc(Cl)ccc12
7.67

Attention now turns to another entry.
INPUT: Give its pIC50 value. Item: CCN(CC)Cc1ccc(-c2ccc(CNc3ccnc4cc(Cl)ccc34)cc2)cc1
OUTPUT: 7.89
